These measurements were taken from PubChem BioAssay (NCI).

Tested on: LXFL 529 NSCLC
Assay: NCI tumour cell line growth inhibition, 48 h
For each entry below, report its TGI value.
Answers are plain numbers, in µM.

Example cases with answers are listed next.
- compound: "O=[N+]([O-])c1cc(C2SCc3nc4ccccc4n32)ccc1Cl (stereo unspecified)"
  uom: "µM"
  TGI: 99.7
- compound: "O=C(c1ccccc1)[C@@H]1C[C@H](Sc2ccccc2)c2cc(Cl)ccc2N1"
  uom: "µM"
  TGI: 77.5

Now look at this one.
Record request: TGI value, item `Cc1ccc([N+](=O)[O-])cc1NC(=O)c1cccc([N+](=O)[O-])c1O`
78.1

* * *

Please provide measured TGI for the entries that follow.
Test system: NCI-H460 lung
Assay: NCI tumour cell line growth inhibition, 48 h
One number for each entry, in µM.

- itemSmiles: "COc1cc(Cl)cc(-c2nn(-c3cccc(NC(=O)Nc4cc(C(F)(F)F)cc(C(F)(F)F)c4)c3)cc2-c2ccncc2)c1"
  TGI / µM: 1.71

Pending compound:
Data request, read-out TGI, for `COc1cc(/C=C/C(=O)c2c(C)nc3ccccc3c2/C=C/c2ccc(C)cc2)cc(OC)c1OC`
5.09

* * *

Give GI50 for every item shown.
Tested on: SK-OV-3 ovarian
Assay: NCI tumour cell line growth inhibition, 48 h

- molecule: "N#CC1=C(N)Oc2c(sc3c(Br)cccc23)C1c1ccc(Br)cc1 (stereo unspecified)"
  GI50: "0.316 µM"
- molecule: "Clc1ccc2nnnn2n1"
  GI50: "10.5 µM"
- molecule: "Cc1ccc2c(c1)C(C)Cc1c(Cl)ncnc1N2C (stereo unspecified)"
  GI50: "3.75 µM"

Hi! Can you tell me GI50 for each of these molecules?
1. CCN1Cc2c(ccc(F)c2C#N)O[C@@H](C)CNC(=O)c2c(N)nn3ccc1nc23
2. COc1ccccc1N1CCN(CCc2c[nH]c3cc4c(cc23)OCO4)CC1
3. COc1cc2c(cc1OCCCCCOc1ccc(-n3c(C)nc4ccccc4c3=O)cc1)N=C[C@@H]1CCCN1C2=O
4. OC(CNCC1CCCO1)Cn1c2ccc(Cl)cc2c2cc(Cl)ccc21 (stereo unspecified)
5. S=c1ssc(Oc2ccccc2)c1Cl
6. CNC(=O)CC1NC(=O)c2csc(n2)-c2ccc(-c3nc(C4=NC(C(=O)N5CCCC5C(N)=O)CO4)cs3)nc2-c2csc(n2)-c2csc(n2)C(C(C)C)NC(=O)CNC(=O)c2csc(n2)C(C(C)C)NC(=O)c2nc1sc2C (stereo unspecified)
7. O=C(c1ccccc1)C(Br)C(Br)c1cccc([N+](=O)[O-])c1 (stereo unspecified)
8. Oc1ccccc1CNCC12CC3CC(CC(C3)C1)C2

1.66 µM
81.6 µM
0.41 µM
2.08 µM
39.4 µM
> 25 µM
11 µM
35.8 µM

Could I get GI50 for every one of these entries?
1. COC(=O)C1=C(C(=O)OC)SC(=C(Cl)C(=S)Nc2ccccc2O)S1
2. CCCCCCCCCCCCOC1C(C(COC2OC(C3COC(C)(C)O3)C3OC(C)(C)OC23)NC(=O)NS(=O)(=O)c2ccccc2)OC2OC(C)(C)OC21 (stereo unspecified)
3. COc1cc(Cl)cc(-c2nn(-c3cccc(NC(=O)Nc4cc(C(F)(F)F)cc(C(F)(F)F)c4)c3)cc2-c2ccncc2)c1
4. COC(=O)CCC1CCC(c2cc(F)ccc2F)(S(=O)(=O)c2ccc(Cl)cc2)CC1 (stereo unspecified)
5. O=C1C=CC[C@H](/C=C/c2ccccc2)O1

1. 20 µM
2. 13.8 µM
3. 1.22 µM
4. > 100 µM
5. 5.54 µM

Field: GI50. Fill in for each record below.
1. Oc1ccccc1C=Nc1nc(SCc2ccccc2)nc2[nH]ncc12
2. CCN1C(=O)N(c2ccccc2)C2NC(=S)N(/N=C/C=C/c3ccccc3)C21 (stereo unspecified)
3. COc1ccc(S(=O)(=O)Nc2cc(/C=C\c3cc(OC)c(OC)c(OC)c3)ccc2OC)cc1
4. COC(=O)C1CCCN1C(=O)[C@@H]1CCCN1C(=O)[C@H](Cc1c[nH]c2ccccc12)NC(=S)Nc1cc(C(F)(F)F)cc(C(F)(F)F)c1 (stereo partly specified)
5. COc1cccc(OCCCN)c1-c1cc(Nc2cnc(C#N)cn2)n[nH]1

> 100 µM
0.421 µM
0.0963 µM
2.95 µM
0.00474 µM

* * *

Test system: LOX IMVI melanoma
Assay: NCI tumour cell line growth inhibition, 48 h
metric: TGI

// worked examples, TGI included
- molecule: "Oc1cc(-c2ccc(Cl)cc2)cn2c1nc1ccccc12"
  observedValue: "> 100 µM"
- molecule: "Cc1ccc(N(C(=O)Nc2ccc(F)c(Cl)c2)C2=NCC(C)S2)cc1 (stereo not drawn)"
  observedValue: "> 100 µM"

Let us move to another entry and its TGI.
Look up TGI for this molecule: COc1ccc(OC2OC(COC(c3ccccc3)(c3ccc(OC)cc3)c3ccc(OC)cc3)C(O)C(O)C2O)cc1 (stereo not drawn)
3.95 µM

* * *

Give GI50 for every item shown.
Test system: SK-MEL-28 melanoma
Assay: NCI tumour cell line growth inhibition, 48 h

// solved cases for GI50 follow
- compound: "COc1cc(/C=C/C(=O)c2c(C)nc3ccccc3c2/C=C/c2ccc(C)cc2)cc(OC)c1OC"
  GI50: "2020 nM"
- compound: "COc1cc(/C=N/NC(=O)c2cnn3c2NC(c2ccccc2)C3)ccc1Oc1ccccc1 (configuration not stated)"
  GI50: "1380 nM"
- compound: "CC(C)COCC(CN(Cc1ccccc1)c1ccccc1)N1CCCC1 (configuration not stated)"
  GI50: "3480 nM"

State recorded GI50 for all listed compounds.
1. OC(CNCC1CCCO1)Cn1c2ccc(Cl)cc2c2cc(Cl)ccc21 (configuration not stated)
2. NC1=C(c2nc(-c3ccccc3)cs2)C(c2ccc(Br)cc2)c2c(c3ccccc3oc2=O)O1 (configuration not stated)
3. COC(=O)CCC1CCC(c2cc(F)ccc2F)(S(=O)(=O)c2ccc(Cl)cc2)CC1 (configuration not stated)
4. C=C1C(=O)O[C@H]2[C@H]1CCC(/C=N/c1ncc(Br)cc1N)=C\CC[C@@]1(C)O[C@@H]21

1. 1670 nM
2. 79.9 µg/mL
3. > 100000 nM
4. 2370 nM

I would be grateful if you could provide GI50 for each of the following entries.
1. Clc1ccc2nnnn2n1
2. N#CC1=C(N)Oc2c(sc3c(Br)cccc23)C1c1ccc(Br)cc1 (configuration not stated)
3. CCCCCCCCCCCCOC1C(C(COC2OC(C3COC(C)(C)O3)C3OC(C)(C)OC23)NC(=O)NS(=O)(=O)c2ccccc2)OC2OC(C)(C)OC21 (configuration not stated)
4. O=c1[nH]c(=O)c2cc(C3CC(O)C(CO)O3)ccc2[nH]1 (configuration not stated)
5. CC(=O)c1cccc(Nc2nc3ccc(Cl)cc3c3[nH]c4ccccc4c23)c1

12300 nM
1440 nM
9610 nM
> 100000 nM
16500 nM

* * *

Test system: NCI/ADR-RES ovarian
Assay: NCI tumour cell line growth inhibition, 48 h
For each of the compounds below, state its TGI.
Numbers only, in µM.

- compound: "Nc1nc(N)c2c(n1)NC(c1ccc(F)cc1)C1CCc3ccccc3C1=N2 (configuration not stated)"
  targetDesc: "NCI/ADR-RES ovarian"
  TGI, µM: 11.4

Record TGI per entry; entries follow.
1. C=C1C(=O)O[C@H]2[C@H](OC(C)=O)[C@@H](C)CCC/C(C)=C/CC[C@@]3(C)O[C@@H]3C[C@@H]12
2. Cc1sc2nc(-c3ccc([N+](=O)[O-])cc3)c(/C=N/N=C(N)N)n2c1C

1. 4
2. 11

* * *

Test system: HL-60(TB) leukemia
Experiment: NCI tumour cell line growth inhibition, 48 h
I'd appreciate it if you could supply GI50 values for the items below.

Example entries begin here.
- compound: "Cc1cc(NCc2cc(Nc3ccnc4cc(Cl)ccc34)ccc2F)nc(N2CCN(C)CC2)n1"
  GI50: "1680 nM"
- compound: "Cc1cc(=O)[nH]c2cc3c(c4c(n3Cc3ccc(Cl)cc3Cl)CC(C)(C)CC4=O)c(O)c12"
  GI50: "> 100000 nM"
- compound: "COC(=O)CCC1CCC(c2cc(F)ccc2F)(S(=O)(=O)c2ccc(Cl)cc2)CC1 (stereo not given)"
  GI50: "45300 nM"
- compound: "OC(CNCC1CCCO1)Cn1c2ccc(Cl)cc2c2cc(Cl)ccc21 (stereo not given)"
  GI50: "2300 nM"

Turning now to a further record.
Reported GI50 for HL-60(TB) leukemia, given O=C(c1ccccc1)C(Br)C(Br)c1cccc([N+](=O)[O-])c1 (stereo not given) ?
2040 nM

* * *

Test system: NCI-H23 lung
Experiment: NCI tumour cell line growth inhibition, 48 h; in the data active = GI50 below about 0.43 µM; inactive = the rest
Pick from active, inactive when you respond.

Completed entries (count: 2):
- itemSmiles: "COc1ccc(/C(=N\\O)c2cc(C)c(OC)c(C)c2)cc1O"
  classification: "active"
- itemSmiles: "COc1cc(Cl)cc(-c2nn(-c3cccc(NC(=O)Nc4cc(C(F)(F)F)cc(C(F)(F)F)c4)c3)cc2-c2ccncc2)c1"
  classification: "active"

Attention now shifts to the item below.
How was `O=P(CCCCP(=O)(c1ccccc1)c1ccccc1)(c1ccccc1)c1ccccc1.[Cl][Sn]([Cl])([c]1ccccc1)[c]1ccccc1` classified in this test?
inactive
